System: NCI/ADR-RES ovarian
PROTOCOL_SUMMARY: NCI-60 one-dose screen, 48 h (100 = growth as untreated, 0 = no growth, -100 = all killed)
MEASUREMENT_SETUP: 10 µM unless noted
The panel holds about 83,000 compounds, 20% with a hit somewhere; the sample as a whole holds those more often.
Recorded growth values for a group of compounds are listed next.
The figure you give is taken to be in %; do not add the unit.

COMPOUND: Nc1ncnc2c1CN(Cc1ccccc1)CC2
UNITS_LABEL: %
growth: 104

Given COc1ccc(NS(=O)(=O)N2CCCCC2)cc1 , state its recorded growth.
116

Given Cn1c(=O)c2[nH]c(=S)n(Cc3ccccc3)c2n(C)c1=O , state its recorded growth.
99.2

Given COc1ccc2[nH]c(=O)c(CNc3ccc(Nc4nccc(-c5ccc(Cl)cc5)n4)cc3)cc2c1 , state its recorded growth.
92.5

Given COc1ccc(C2CC(c3ccc4c(c3)OCO4)=NN2C=O)cc1 (stereo unspecified) , state its recorded growth.
103
